- Test system: SK-OV-3 ovarian
- ASSAY_REMARKS: NCI tumour cell line growth inhibition, 48 h
OBSERVED_PROPERTY: TGI

Some entries whose results are on file:
{"columns": ["MOLECULE", "TGI"],
 "data": [
  ["CC(=O)O[C@@H]1C(C2CCCCC2)C=[N+]([O-])O[C@@H]1OC1CCCC1(c1ccccc1)c1ccccc1 (stereo partly specified)", "29.1 µM"],
  ["COc1ccc2c(N=[N+]=[N-])c(-c3ccccc3)c(=O)oc2c1", "> 100 µM"],
  ["N/N=C(\\CCN1CCCC1)CC(c1ccccc1)c1c(O)c2ccccc2oc1=O (stereo unspecified)", "> 100 µM"],
  ["CC(C)c1ccccc1NC(=O)CCC(=O)NN", "> 100 µM"],
  ["O=c1cc(NNc2ccc(F)cc2)[nH]c(=O)[nH]1", "> 100 µM"],
  ["CC(=O)COC(=O)CC(C)=O", "> 100 µM"],
  ["CSc1ccc(NC(=O)C2CCCCC2C(=O)O)cc1 (stereo unspecified)", "> 100 µM"],
  ["COC(=O)c1ccc2cc(O)c(O)cc2c1", "> 100 µM"],
  ["Cc1ccc2c(=O)cc(-c3ccc(Cl)cc3)[nH]c2n1", "> 100 µM"],
  ["N=c1c2c(=S)n(-c3ccccc3)c(=S)n(-c3ccccc3)c2nc(SCCCN2CCCCC2)n1-c1ccccc1", "5.34 µM"]
]}

// moving on: another record for TGI
Query `Cn1ccnc1CCc1ccc(Cl)cc1Cl` yields TGI of > 100 µM

---

- Tested on: BT-549 breast
- ASSAY_REMARKS: NCI tumour cell line growth inhibition, 48 h
Form field: TGI (one value per entry).

Some entries whose results are on file:
{"columns": ["MOLECULE", "ASSAY_TARGET", "TGI"],
 "data": [
  ["CC1=NOC(C)(O)/C1=N/O (stereo not given)", "BT-549 breast", "> 100 µM"],
  ["C[C@@H]1OC(=O)C[C@H]2CC(=O)N(CCC3CN(C(=O)c4ccccc4)c4ccccc43)C[C@@H]21 (stereo not given in full)", "BT-549 breast", "> 100 µM"],
  ["CCCCCCCCCCCCCCCC(=O)Nc1ccn(C2OC(CO)C(O)C2O)c(=O)n1 (stereo not given)", "BT-549 breast", "> 100 µM"]
]}

Query CSc1ccc(NC(=O)C2CCCCC2C(=O)O)cc1 (stereo not given) yields TGI of > 100 µM

Query `CCCCC(CCCC)=NNC(=S)SC` yields TGI of > 100 µM

---

- Test system: HCC-2998 colon
- ASSAY_REMARKS: NCI tumour cell line growth inhibition, 48 h
OBSERVED_PROPERTY: GI50

Some entries whose results are on file:
{"columns": ["COMPOUND", "OBSERVED_PROPERTY", "VALUE_REPORTED"],
 "data": [
  ["Cc1ccc(C2CC(c3cccc(Nc4ccncc4)c3)=NN2c2cc(Cl)cc(Cl)c2)cc1 (centres undefined)", "GI50", "1.52 µM"],
  ["COc1cccc(CNCCN2C(=O)c3ccc4c5c(ccc(c35)C2=O)C(=O)N(CCNCc2cccc(OC)c2)C4=O)c1", "GI50", "5.21 µM"],
  ["COc1ccc2c3c([nH]c2c1)C(=O)c1nc(C)ccc1C3=O", "GI50", "3.81 µM"]
]}

// moving on: another record for GI50
Query `COc1cc(Cl)cc(-c2nn(-c3cccc(NC(=O)c4cccc(C(F)(F)F)c4)c3)cc2-c2ccncc2)c1` yields GI50 of 6.66 µM
